- Tested on: Ninety four (94) cell lines and PBMC
- ASSAY OVERVIEW: Cell viability assay, SRB staining, 94 cell lines and PBMC (Example 7, Experiment 2)
- Format: cell-based
- TEST PARAMETERS: Homo sapiens, IGROV-1, IGROV1, ovary
Task for the reader: assign each of the following compounds its reported pIC50.
Give bare numbers, as −log10 of the molar value.

# COMPOUND, METRIC NAME, ASSAY RESULT
rows = [
    ("CC(=O)N[C@@H](Cc1c[nH]c2ccccc12)C(=O)N[C@@H](CCC(=O)C=[N+]=[N-])C(=O)OC(C)C", "pIC50", 4.97),
]

Kindly note: Ninety four (94) cell lines and PBMC, [N-]=[N+]=CC(=O)CC[C@H](N)C(=O)O [DON, 6-Diazo-5-oxo-L-norleucine, reference compound] , pIC50 value reported: 4.99

Cited source for all entries: patent US20220117938A1
